- Assay Target: Retinoic acid receptor beta (Homo sapiens)
- Sequence (P10826 whole entry): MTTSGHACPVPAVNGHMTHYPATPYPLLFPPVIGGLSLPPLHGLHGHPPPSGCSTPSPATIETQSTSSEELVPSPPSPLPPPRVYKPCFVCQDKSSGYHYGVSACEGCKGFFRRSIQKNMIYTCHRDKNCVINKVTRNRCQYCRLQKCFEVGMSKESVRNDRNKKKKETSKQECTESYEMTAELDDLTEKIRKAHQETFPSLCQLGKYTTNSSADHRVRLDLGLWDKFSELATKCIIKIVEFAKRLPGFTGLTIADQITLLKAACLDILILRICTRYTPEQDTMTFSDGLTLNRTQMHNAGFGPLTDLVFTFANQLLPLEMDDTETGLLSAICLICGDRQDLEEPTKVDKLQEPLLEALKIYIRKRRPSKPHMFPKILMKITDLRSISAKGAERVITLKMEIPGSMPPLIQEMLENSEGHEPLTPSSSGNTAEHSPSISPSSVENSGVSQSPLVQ
- Assay Method Text: Transcriptional activation in CV-1 cells expressing human Retinoic acid receptor RAR beta
Measure Name: pEC50
Quick note: pEC50 means taking -log10 of the concentration in moles per liter.

So what does the record say about pEC50 for COC(=O)c1ccc(C(=O)Nc2ccc3c(c2)C(C)(C)CC(C)(C)S3)cc1 ? 6.00

====

Provide the reported EC50 of each item.
- Assay Target: Retinoic acid receptor RXR-alpha (Mus musculus)
- Sequence (P28700 whole entry): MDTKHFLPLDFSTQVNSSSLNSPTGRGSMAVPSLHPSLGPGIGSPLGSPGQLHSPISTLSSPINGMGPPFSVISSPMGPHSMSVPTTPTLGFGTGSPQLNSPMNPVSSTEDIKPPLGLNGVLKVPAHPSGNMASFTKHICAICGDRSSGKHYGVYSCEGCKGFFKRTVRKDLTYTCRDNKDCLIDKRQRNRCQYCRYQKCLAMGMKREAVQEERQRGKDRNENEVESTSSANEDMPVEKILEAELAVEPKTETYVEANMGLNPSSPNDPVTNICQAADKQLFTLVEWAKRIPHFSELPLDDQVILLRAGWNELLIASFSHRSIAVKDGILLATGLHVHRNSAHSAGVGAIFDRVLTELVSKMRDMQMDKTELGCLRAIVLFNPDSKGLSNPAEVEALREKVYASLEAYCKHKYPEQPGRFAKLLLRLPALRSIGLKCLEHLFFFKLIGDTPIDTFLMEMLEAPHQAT
- Assay Method Text: Transcriptional activation of CV-1 cells expressing murine Retinoid X receptor RXR alpha
Report as a plain number; the unit nM is understood.

So what does the record say about EC50 for CC1(C)CCOc2ccc(C(=O)Oc3ccc(/C=N/N=C(/N)S)cc3)cc21 ? 294

So what does the record say about EC50 for COC(=O)c1ccc(C(=O)Nc2ccc3c(c2)C(C)(C)CC(C)(C)S3)cc1 ? 84
